Each recorded value in this set is attributed to patent US20110172244A1.

- tested.system: UniProtKB Q8TDV5
- Sequence (Q8TDV5 1-335): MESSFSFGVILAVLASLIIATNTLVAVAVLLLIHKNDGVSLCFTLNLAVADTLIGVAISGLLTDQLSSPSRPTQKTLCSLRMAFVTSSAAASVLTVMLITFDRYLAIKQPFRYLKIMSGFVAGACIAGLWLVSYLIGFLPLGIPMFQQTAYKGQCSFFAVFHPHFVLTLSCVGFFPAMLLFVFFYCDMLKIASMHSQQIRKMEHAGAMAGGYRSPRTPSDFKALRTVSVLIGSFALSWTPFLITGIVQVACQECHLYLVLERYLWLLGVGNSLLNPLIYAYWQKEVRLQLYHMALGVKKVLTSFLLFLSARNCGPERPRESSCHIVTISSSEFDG
- method.summary: Cyclic AMP assay in stable cell line (Flp-In-CHO-hGPR119, HTRF)
- stated.conditions: Flp-In-CHO-hGPR119 cells, cAMP HTRF, 1 mM IBMX, 30 minutes at 37° C.; read-out: CHO-GPR119-HTRF (3158) EC50
quantity.kind: EC50 (nM)

Please review the entries below; each comes with its answer.
{"columns": ["substance.smiles", "EC50 [nM]"],
 "data": [
  ["CN(CCOc1ccccc1)C(=O)c1[nH]c2ccccc2c1S(=O)(=O)c1ccc(Cl)cc1", 192],
  ["O=C(c1oc2ccccc2c1S(=O)(=O)c1ccc(Cl)cc1)N1CCN(Cc2ccccc2)CC1", 187],
  ["O=C(c1[nH]c2ccccc2c1Sc1ccccc1)N1CCC(Cc2ccccc2)CC1", 454],
  ["O=C(c1[nH]c2ccccc2c1S(=O)(=O)c1ccc(Cl)cc1)N1CCN(Cc2ccc3c(c2)OCO3)CC1", 40]
]}

I = O=C(c1[nH]c2ccccc2c1S(=O)(=O)c1ccc(Cl)cc1)N1CCN(CC2CCCCC2)CC1
II = O=C(c1[nH]c2ccccc2c1Sc1ccc(Cl)cc1)N1CCC(Cc2ccccc2)CC1
III = O=C(NCCCCc1ccccc1)c1[nH]c2ccccc2c1S(=O)(=O)c1ccc(Cl)cc1
IV = O=C(c1[nH]c2ccccc2c1S(=O)(=O)c1ccc(Cl)cc1)N1CCN(Cc2ccc(Cl)cc2)CC1
Prompt line: Order the records so the highest EC50 appears first and the lowest last. Please write the labels in the order that was asked for.
Response line: III, II, I, IV
(III: 396 nM, II: 180 nM, I: 32 nM, IV: 17 nM)

###

- tested.system: UniProt:Q8TDV5
- method.summary: Cyclic AMP assay in stable cell line (Flp-In-CHO-hGPR119, HTRF)
- stated.conditions: Flp-In-CHO-hGPR119 cells, cAMP HTRF, 1 mM IBMX, 30 minutes at 37° C.; read-out: CHO-GPR119-HTRF (3158) EC50
quantity.kind: EC50 (nM)

A = O=C(c1[nH]c2ccc(F)cc2c1S(=O)(=O)c1ccc(Cl)cc1)N1CCC(Cc2ccccc2)CC1
B = O=C(c1[nH]c2ccccc2c1S(=O)(=O)c1ccc(Cl)cc1)N1CCC(CCc2ccccc2)CC1
C = O=C(c1[nH]c2ccccc2c1S(=O)(=O)c1ccc(Cl)cc1)N1CCN(Cc2c(F)cccc2Cl)CC1
D = O=C(c1oc2ccccc2c1S(=O)(=O)c1ccc(Cl)cc1)N1CCC(Oc2ccc(C(F)(F)F)cc2)CC1
E = O=C(c1[nH]c2ccccc2c1S(=O)(=O)Cc1ccccc1)N1CCC(Cc2ccccc2)CC1
Prompt line: Would you mind ranking these compounds by ascending EC50? Please write the labels in the order that was asked for.
Response line: C, A, B, D, E

A = Cc1ccc(OC2CCN(C(=O)c3[nH]c4ccccc4c3S(=O)(=O)c3ccc(Cl)cc3)CC2)cc1
B = O=C(c1[nH]c2ccccc2c1S(=O)(=O)c1ccc(Cl)cc1)N1CCCCC1
Prompt line: # return whichever of A and B has the smaller EC50 Choose, then provide that item's label.
Response line: A
(A: 9 nM, B: 574 nM)
